Test system: Achsel- und Fußschweiß
test.conditions: result in words; concentration not given
property.label: desodorierende Wirksamkeit

# example entries with known answers
compound: NC(=O)NC(N)=O [Biuret]
desodorierende Wirksamkeit: Wirksam
//
compound: O=C(O)CNC(=O)c1ccccc1 [Hippursäure]
desodorierende Wirksamkeit: Wirksam
//
compound: O=C1CC(=O)NC(=O)N1 [Malonylharnstoff(Barbitursäure), Malonylharnstoff]
desodorierende Wirksamkeit: Wirksam
//
compound: CC(O)C(=O)NCCO (stereo not shown) [Ethanolamide der Milchsäure]
desodorierende Wirksamkeit: Die gleiche Eigenschaft
//
compound: CCOC(N)=O [Urethan]
desodorierende Wirksamkeit: Wirksam

From here, focus on the item given below.
Give the reported value of desodorierende Wirksamkeit for this record: CCC(=O)NCCO [Ethanolamide der Propionsäure]
Die gleiche Eigenschaft
